# experimental-target: human CD33 Y340A (human, UniProt P20138 18-364)
# Sequence (P20138 18-364 Y340A limits assumed): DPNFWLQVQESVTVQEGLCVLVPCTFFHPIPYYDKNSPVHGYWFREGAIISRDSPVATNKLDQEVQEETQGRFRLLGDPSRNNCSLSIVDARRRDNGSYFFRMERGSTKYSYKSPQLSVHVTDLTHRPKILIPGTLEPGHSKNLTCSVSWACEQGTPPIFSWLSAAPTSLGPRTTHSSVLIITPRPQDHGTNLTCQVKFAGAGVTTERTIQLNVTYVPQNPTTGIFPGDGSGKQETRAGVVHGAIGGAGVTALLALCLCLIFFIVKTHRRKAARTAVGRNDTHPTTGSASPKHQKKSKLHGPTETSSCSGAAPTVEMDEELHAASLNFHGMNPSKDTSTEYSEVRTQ
# assay-summary: flow cytometry, alanine scan
property-label: Mean % WT Binding

{"binder": "Refmab #1 (antibody, V domains shown, The alanine scan used IgG or Fab; also called hP67.6) VH: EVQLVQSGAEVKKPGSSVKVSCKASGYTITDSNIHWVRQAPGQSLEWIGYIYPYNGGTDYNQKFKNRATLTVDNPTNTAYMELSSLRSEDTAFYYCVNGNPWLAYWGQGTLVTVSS VL: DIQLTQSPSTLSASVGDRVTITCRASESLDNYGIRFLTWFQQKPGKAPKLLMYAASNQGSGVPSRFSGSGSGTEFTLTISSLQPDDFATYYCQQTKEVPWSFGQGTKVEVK", "Mean % WT Binding": "91.1 % of WT"}
{"binder": "Refmab #2 (antibody, V domains shown, The alanine scan used IgG or Fab) VH: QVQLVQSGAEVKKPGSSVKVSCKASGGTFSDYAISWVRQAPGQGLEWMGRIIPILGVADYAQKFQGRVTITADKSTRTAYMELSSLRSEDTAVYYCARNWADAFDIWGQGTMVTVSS VL: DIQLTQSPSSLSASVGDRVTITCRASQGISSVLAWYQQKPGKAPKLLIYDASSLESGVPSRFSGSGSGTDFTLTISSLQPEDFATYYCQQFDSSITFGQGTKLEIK", "Mean % WT Binding": "106 % of WT"}

query: Return reported Mean % WT Binding. Input binder: Refmab #3 (antibody, V domains shown, The alanine scan used IgG or Fab) VH: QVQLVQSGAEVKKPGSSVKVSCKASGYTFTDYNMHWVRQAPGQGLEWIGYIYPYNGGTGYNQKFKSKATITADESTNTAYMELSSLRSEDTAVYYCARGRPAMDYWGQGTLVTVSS VL: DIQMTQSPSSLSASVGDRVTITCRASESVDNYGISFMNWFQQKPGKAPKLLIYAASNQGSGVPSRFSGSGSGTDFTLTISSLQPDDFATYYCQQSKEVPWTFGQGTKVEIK
result: 88 % of WT
